- Test system: IGROV-1
- assay_name: NCI tumour cell line growth inhibition, 48 h
Activity calls are given as the source filed them. Rule as the data show it: active = GI50 up to about 1.1 µM and inactive = higher. Residues, ends and D or L forms follow the SMILES beside them. Groups on a side chain read outwards from the residue. *: point of attachment. Cbz = O=C(OCc1ccccc1)*; Boc = CC(C)(C)OC(=O)*
Outcome codes: y (active), n (inactive)

>  <compound>
COc1cccc(-c2cc(O)c3cc(N4CCN(C)CC4)ccc3n2)c1

>  <system>
IGROV-1

>  <category>
n

$$$$
>  <compound>
Cc1nc2ccccc2c(=O)n1/N=C(\N=N\c1ccc(Cl)cc1)c1cccc(-c2ccco2)c1

>  <system>
IGROV-1

>  <category>
n

$$$$
>  <compound>
N/C1=C/C(=O)NC(=O)c2c(c3ccccc3oc2=O)C1

>  <system>
IGROV-1

>  <category>
n

$$$$
>  <compound>
O=C(O)c1cccc2c1/C(=N/Nc1ccccc1)CC2

>  <system>
IGROV-1

>  <category>
n

$$$$
>  <compound>
O=C(CC(=O)c1cccc([N+](=O)[O-])c1)C(=O)Nc1ccccc1

>  <system>
IGROV-1

>  <category>
n

$$$$
>  <compound>
NC(=O)C(NC=O)c1ccccc1 (stereo not drawn)

>  <system>
IGROV-1

>  <category>
n

$$$$
>  <compound>
C=C1C(=O)O[C@@H]2O[C@@]3(C)CC[C@H]4[C@H](C)CC[C@@H]1[C@@]24O3 [DEOXYARTEMISITENE]

>  <system>
IGROV-1

>  <category>
n

$$$$
>  <compound>
Nc1ncnc2c1N=CN(Oc1ccccc1)N2

>  <system>
IGROV-1

>  <category>
n

$$$$
>  <compound>
COc1cccc(C2N3CCCCC3[C@@H]3c4[nH]c5ccccc5c4CCN23)c1OC (stereo partly drawn)

>  <system>
IGROV-1

>  <category>
n

$$$$
>  <compound>
O=C1c2cccc(O)c2C(=O)c2c(O)cccc21 [DANTHRON]

>  <system>
IGROV-1

>  <category>
n

$$$$
>  <compound>
C1CSCCSCCSCCSC1

>  <system>
IGROV-1

>  <category>
n

$$$$
>  <compound>
C/C(=C\Cc1cc(O)ccc1O)CCc1c(C)c(O)c(O)c(C=O)c1C [PANICEIN C]

>  <system>
IGROV-1

>  <category>
n

$$$$
>  <compound>
CCCC(=O)Nc1cc(/C=C/C(=O)N2CC(CCl)c3ccc(N)cc32)n(C)c1 (stereo not drawn)

>  <system>
IGROV-1

>  <category>
y

$$$$
>  <compound>
O=c1c(-c2ccccc2)c(SCCN2CCOCC2)n(-c2ccccc2)c(=S)n1-c1ccccc1

>  <system>
IGROV-1

>  <category>
n

$$$$
>  <compound>
Cc1[nH]c(=O)nc(N(CCO)/N=C/c2ccccc2Cl)c1C(=O)Nc1cc(Cl)cc(Cl)c1

>  <system>
IGROV-1

>  <category>
n

$$$$
>  <compound>
Cc1n[nH]c(=O)n1/N=C/c1cccnc1

>  <system>
IGROV-1

>  <category>
n

$$$$
>  <compound>
CC(C)(C)OC(=O)NC(CCCCNC(=O)CNC(=O)OCc1ccccc1)C(=O)NC(CCCCNC(=O)CNC(=O)OCc1ccccc1)C(=O)NC(CCCCNC(=O)CNC(=O)OCc1ccccc1)C(=O)NC(CCCCNC(=O)CNC(=O)OCc1ccccc1)C(=O)O (stereo not drawn) (Boc-K([Gly-Cbz])K([Gly-Cbz])K([Gly-Cbz])K([Gly-Cbz])-OH; configuration not given here)

>  <system>
IGROV-1

>  <category>
n

$$$$
>  <compound>
CCc1cc2c(oc3cc(C)ccc32)c(=O)n1C

>  <system>
IGROV-1

>  <category>
n

$$$$
>  <compound>
CC(C)(C)OC(=O)N/N=C(/N)Cc1ccc(Cl)cc1

>  <system>
IGROV-1

>  <category>
n

$$$$
>  <compound>
O=C(n1c(=O)n(-c2ccc(Cl)cc2)c(=O)n1C(=O)C(Cl)(Cl)Cl)C(Cl)(Cl)Cl

>  <system>
IGROV-1

>  <category>
n

$$$$
>  <compound>
Cc1ccc(-c2cnc(NC3OC(COC(=O)c4ccccc4)C(OC(=O)c4ccccc4)C(OC(=O)c4ccccc4)C3OC(=O)c3ccccc3)s2)cc1 (stereo not drawn)

>  <system>
IGROV-1

>  <category>
n

$$$$
>  <compound>
CC[C@H](C)[C@H]1NC(=O)[C@@H](NC(=O)[C@@H](CC(C)C)N(C)C(=O)C2CCCN2C(=O)[C@H](C)O)[C@@H](C)OC(=O)[C@@H]2Cc3ccccc3CN2C(=O)[C@@H]2CCCN2C(=O)[C@H](CC(C)C)NC(=O)[C@@H](C)C(=O)[C@H](C(C)C)OC(=O)C[C@@H]1O (stereo partly drawn)

>  <system>
IGROV-1

>  <category>
y

$$$$
>  <compound>
COC(=O)[C@@]12CC[C@]1(C(=O)OC)C1C(C)=CC(=O)O[C@@]12C (stereo partly drawn)

>  <system>
IGROV-1

>  <category>
n

$$$$
